Molecular target: CYP2C19 (Homo sapiens)
Construct: from tissue; host or cells: human liver microsomes (pooled in the time-dependent assay)
Sequence (P33261 whole entry): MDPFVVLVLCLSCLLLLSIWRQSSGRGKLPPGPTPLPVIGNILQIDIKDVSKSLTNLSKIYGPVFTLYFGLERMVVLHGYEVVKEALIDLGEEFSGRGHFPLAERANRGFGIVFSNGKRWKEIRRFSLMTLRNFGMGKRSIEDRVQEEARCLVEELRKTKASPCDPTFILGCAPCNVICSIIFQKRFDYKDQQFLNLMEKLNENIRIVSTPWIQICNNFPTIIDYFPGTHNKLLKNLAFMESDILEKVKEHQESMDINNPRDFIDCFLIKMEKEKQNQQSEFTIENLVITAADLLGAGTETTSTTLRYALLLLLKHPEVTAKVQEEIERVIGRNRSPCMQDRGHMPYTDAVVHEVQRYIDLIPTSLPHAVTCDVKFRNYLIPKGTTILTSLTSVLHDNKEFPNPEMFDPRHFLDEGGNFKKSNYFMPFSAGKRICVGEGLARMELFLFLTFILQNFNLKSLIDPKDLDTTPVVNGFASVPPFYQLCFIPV
Experiment: direct inhibition of CYP450 in human liver microsomes
Format: in vitro ADME
Settings: estimated from 3, 10, 50 uM, read-out: CYP2C19 T0 estimated IC50
pIC50: −log10 of the molar value.
Property Name: pIC50

# Molecule, Obs Value
measured = [
    ("Cn1cncc1-c1ccnc(C(=O)N[C@H]2CC[C@H](O)CC2)n1 [Compound 256]", "< 4.30"),
]

Below are some molecules; for each one, tell me its pIC50.
1. CO[C@H]1CC[C@H](NC(=O)c2cc(C3(C)COC3)nc(-c3cncn3C)n2)CC1 [Compound 295]
2. CO[C@H]1CC[C@H](NC(=O)c2cc(C3CCOCC3)nc(-c3cncn3C)n2)CC1 [Compound 199]
3. CO[C@H]1CC[C@H](NC(=O)c2cc(C3CCC(F)(F)CC3)nc(-c3cncn3C)n2)CC1 [Compound 289]
4. [2H]c1nc([2H])n(-c2nc(C)cc(C(=O)N[C@H]3CC[C@H](OCCOC)CC3)n2)c1[2H] [Comparator Compound A, reference compound]
5. Cn1cncc1-c1ccnc(C(=O)Nc2ccc(C(C)(C)O)nc2)n1 [Compound 250]
6. CO[C@H]1CC[C@H](NC(=O)c2nccc(-n3ccnc3)n2)CC1 [Compound 145]
7. CC(C)(O)c1ccc(NC(=O)c2nccc(-n3ccnc3)n2)cn1 [Compound 249]

# output
["< 4.30", "> 4.30", "> 4.30", "~5.00", "< 4.30", "< 4.30", "< 4.30"]

* * *

Target: endogenous CD38 in HL60 cells (Homo sapiens, UniProt P28907)
Construct: endogenous in cells
Sequence (P28907 whole entry): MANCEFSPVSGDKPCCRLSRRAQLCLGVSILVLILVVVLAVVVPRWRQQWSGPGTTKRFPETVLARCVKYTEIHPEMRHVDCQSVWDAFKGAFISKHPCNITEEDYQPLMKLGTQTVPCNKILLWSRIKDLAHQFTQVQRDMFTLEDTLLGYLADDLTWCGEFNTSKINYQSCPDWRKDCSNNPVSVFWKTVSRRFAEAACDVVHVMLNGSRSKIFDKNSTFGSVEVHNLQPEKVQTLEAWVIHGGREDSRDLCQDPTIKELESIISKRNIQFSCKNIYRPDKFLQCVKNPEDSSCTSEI
Assay: cellular CD38 assay in HL60 cells (cellular NAD levels)
Settings: all-trans retinoic acid, 24 hours, read-out: hCD38 HL60 ATRA NAD Cell Diaphorase IC50
Experimental: The compounds described herein were also assayed for their ability to inhibit the endogenous CD38 in a native cellular environment in the cellular CD38 assay, which measures the ability of the compound to modulate cellular NAD levels. […] 50 μL of a readout-solution containing 0.2 U/mL Diaphorase enzyme, 40 uM resazurin, 10 uM FMN, 0.8 U/mL Alcohol dehydrogenase, 3% ethanol, 0.4 mg/mL bovine serum albumin, 0.2% Triton X-100 in 100 mM Tris-HCl, 30 mM EDTA, pH 8.4. […]
Note that class boundaries on IC50 are A (below 0.7 µM), B (0.7 µM to below 2 µM), C (2 µM or more)

# Compound, Class Label
data = [
    ("Cn1cncc1-c1cncc(C(=O)N[C@H]2CC[C@H](C)CC2)n1 [Compound 104]", "B"),
    ("CC(C)c1cc(C(=O)Nc2ccc(C(F)F)nc2)nc(-n2ccnc2)n1 [Compound 169]", "C"),
    ("CO[C@H]1CC[C@H](NC(=O)c2cc([C@H]3CC[C@@H](OC)CC3)nc(-c3cncn3C)n2)CC1 [Compound 315]", "C"),
    ("COCCO[C@H]1CC[C@H](NC(=O)c2cc(C)nc(-n3ccnc3)n2)CC1 [Compound 156]", "C"),
    ("CO[C@H]1CC[C@H](NC(=O)c2nc(-n3ccnc3)ccc2C)CC1 [Compound 100]", "C"),
]

Shifting focus to the compound that follows.
# input # bin lookup: classify O=C(Nc1ccc(C(F)F)nc1)c1cc(C2CCOCC2)nc(-n2ccnc2)n1 [Compound 195] by its IC50
# output B
